The reported numbers originate from patent US20190055322A1.

EXPERIMENTAL TARGET: PcrV of P. aeruginosa strain PA103 (on TTSS-induced bacteria) (Pseudomonas aeruginosa strain PA103)
TEST METHOD NOTES: cell-based or functional assay
This section presents binders with their documented % inhibition in P3X63 cytotoxicity assay, extract 1/150 values.
MEASURED ATTRIBUTE: % inhibition in P3X63 cytotoxicity assay, extract 1/150

{"BINDER": "Nanobody 302 (5H01-40GS-7C10) (VHH) EVQLVESGGGLVQPGGSLRLSCAASGSTLDYYAIGWFRQAPGKEREGVSCTSNSGSTYYGGSVKGRFTASRDNAKNTVYLQMNSLRPEDTAVYYCVATIGCATLGGTLDVQRYYYRGQGTLVTVSSGGGGSGGGGSGGGGSGGGGSGGGGSGGGGSGGGGSGGGGSEVQLVESGGGLVQAGGSLRLSCTASGRTLSSYTMGWFRQAPGTEREFVAAMTRSGFNTYYADSVKGRFTISRDSTENTMALQMSSLKPEDTAVYYCTAGRGLTSYRADYWGQGTLVTVSS", "VALUE REPORTED": "68%"}
{"BINDER": "Nanobody 115 (11B09-40GS-13F07) (VHH) EVQLVESGGGLVQAGGSLRLSCAASRLTFNHYNMGWFRQAPGKERERVAEVTWSGDKIYYVDSVKGRFTISRDNTPNPVYLYLQMNSLKPEDTAVYYCATAPRGLPYANGYWGQGTLVTVSSGGGGSGGGGSGGGGSGGGGSGGGGSGGGGSGGGGSGGGGSEVQLVESGGGLVQAGGSLRLSCAASGNTFSTNPMYWYRQAEGKQRELVASISSRGITNYADSVRGRFSISRDNTKDTVYLQMNSLKPEDTAVYYCRLASLSSGTVYWGKGTLVTVSS", "VALUE REPORTED": "82%"}
